Values from ChEMBL document CHEMBL3885861

# Organism: Rattus norvegicus
# protocolNotes: Open TG-GATES - Regimen: Single
# Type: toxicity, organism-based, Sprague-Dawley
# Design: regimen Single, gender Male, age 6 weeks
# assaySetup: in vivo, po, 0 mg/kg, 9 h, tissue Plasma, route gavage, dose level Control
Entries and their A/G
// print number alone

// known answers, use as guide
COc1ccc(Cc2nccc3cc(OC)c(OC)cc23)cc1OC [PAPAVERINE] :: 1.3
CN(C)CCC=C1c2ccccc2CCc2ccccc21 [AMITRIPTYLINE] :: 0.8

(Q) // lookup A/G for CCc1cc(C(N)=S)ccn1 [ETHIONAMIDE]
(A) 1.9

(Q) // lookup A/G for NC(=O)N/N=C/c1ccc([N+](=O)[O-])o1 [NITROFURAZONE]
(A) 0.9

(Q) // lookup A/G for O=C(O)c1cc(/N=N/c2ccc(S(=O)(=O)Nc3ccccn3)cc2)ccc1O [SULFASALAZINE]
(A) 1.6

(Q) // lookup A/G for Cn1c(=O)c2[nH]cnc2n(C)c1=O.O [THEOPHYLLINE]
(A) 1.2

----------
# Species: Rattus norvegicus
# protocolNotes: Open TG-GATES - Regimen: Daily Repeat
# Assay type: toxicity, organism-based, Sprague-Dawley
# Set-up: regimen Daily Repeat, gender Male, age 6 weeks
# assaySetup: in vivo, po, 0 mg/kg, 72 h, tissue Plasma, route gavage, dose level Control, time 3 day
Where ALP equals or exceeds 1000 IU/L, the correct label is satisfied; where it does not, the label is not satisfied.

CCc1cc(C(N)=S)ccn1 [ETHIONAMIDE] :: not satisfied

Read the next record carefully.
(Q) Hello, I need to know if COc1ccc(Cc2nccc3cc(OC)c(OC)cc23)cc1OC has measured ALP not below 1000 IU/L. Thanks!
(A) satisfied

----------
# Species: Rattus norvegicus
# protocolNotes: Open TG-GATES - Regimen: Single
# Format: toxicity, organism-based, Sprague-Dawley
# Set-up: regimen Single, gender Male, age 6 weeks
# assaySetup: in vivo, po, 300 mg/kg, 3 h, tissue Plasma, route gavage, dose level Middle
outcomeMeasure: TP
Answers without a unit are incomplete; give the number and then its unit.

// known answers, use as guide
C[C@H](CS)C(=O)N1CCC[C@H]1C(=O)O [CAPTOPRIL] :: 5.4 g/dL
Clc1ccccc1CN1CCc2sccc2C1 [TICLOPIDINE] :: 5.4 g/dL
O=C(O)c1cn(C2CC2)c2cc(N3CCNCC3)c(F)cc2c1=O [CIPROFLOXACIN] :: 5.5 g/dL
O=C(O)c1cc(/N=N/c2ccc(S(=O)(=O)Nc3ccccn3)cc2)ccc1O [SULFASALAZINE] :: 5.4 g/dL

Next:
(Q) // lookup TP for CCc1cc(C(N)=S)ccn1 [ETHIONAMIDE]
(A) 5.5 g/dL

----------
# Species: Rattus norvegicus
# protocolNotes: Open TG-GATES - Regimen: Single
# Format: toxicity, organism-based, Sprague-Dawley
# Set-up: regimen Single, gender Male, age 6 weeks
# assaySetup: in vivo, po, 300 mg/kg, 3 h, tissue Plasma, route gavage, dose level Middle
outcomeMeasure: AST (IU/L)
Quick reminder: number only, in IU/L, skip the unit.

// known answers, use as guide
C[C@H](CS)C(=O)N1CCC[C@H]1C(=O)O :: 61.8
Clc1ccccc1CN1CCc2sccc2C1 :: 74
O=C(O)c1cc(/N=N/c2ccc(S(=O)(=O)Nc3ccccn3)cc2)ccc1O :: 61.4

(Q) // lookup AST for CCc1cc(C(N)=S)ccn1 [ETHIONAMIDE]
(A) 62.8

(Q) // lookup AST for O=C(O)c1cn(C2CC2)c2cc(N3CCNCC3)c(F)cc2c1=O
(A) 68.2

----------
# Organism: Rattus norvegicus
# protocolNotes: Open TG-GATES - Regimen: Single
# Format: toxicity, organism-based, Sprague-Dawley
# Set-up: regimen Single, gender Male, age 6 weeks
# assaySetup: in vivo, po, 0 mg/kg, 24 h, tissue Plasma, route gavage, dose level Control
Entries and their GLC
Quick reminder: number only, in mg/dL, skip the unit.

// known answers, use as guide
CN(C)CCC=C1c2ccccc2CCc2ccccc21 :: 186.4
COc1ccc(Cc2nccc3cc(OC)c(OC)cc23)cc1OC :: 198.2
CCc1cc(C(N)=S)ccn1 [ETHIONAMIDE] :: 200.2
O=C(O)c1cn(C2CC2)c2cc(N3CCNCC3)c(F)cc2c1=O :: 187.2

Next:
(Q) // lookup GLC for O=C(O)c1cc(/N=N/c2ccc(S(=O)(=O)Nc3ccccn3)cc2)ccc1O
(A) 193.8

----------
# Organism: Rattus norvegicus
# protocolNotes: Open TG-GATES - Regimen: Single
# Type: toxicity, organism-based, Sprague-Dawley
# Design: regimen Single, gender Male, age 6 weeks
# assaySetup: in vivo, po, 0 mg/kg, 6 h, tissue Kidney, route gavage, dose level Control
Entries and their KIDNEY_TOTAL
Quick reminder: number only, in g, skip the unit.

// known answers, use as guide
Cn1c(=O)c2[nH]cnc2n(C)c1=O.O :: 1.9
CCc1cc(C(N)=S)ccn1 [ETHIONAMIDE] :: 2
NC(=O)N/N=C/c1ccc([N+](=O)[O-])o1 :: 1.7
COc1ccc(Cc2nccc3cc(OC)c(OC)cc23)cc1OC :: 1.8
CSc1ccc2c(c1)N(CCC1CCCCN1C)c1ccccc1S2 (configuration not stated) :: 1.9

(Q) // lookup KIDNEY_TOTAL for C[C@H](CS)C(=O)N1CCC[C@H]1C(=O)O
(A) 2

(Q) // lookup KIDNEY_TOTAL for CN(C)CCC=C1c2ccccc2CCc2ccccc21
(A) 1.7

(Q) // lookup KIDNEY_TOTAL for NC(=O)N1c2ccccc2C=Cc2ccccc21 [CARBAMAZEPINE]
(A) 2

(Q) // lookup KIDNEY_TOTAL for O=C(O)c1cc(/N=N/c2ccc(S(=O)(=O)Nc3ccccn3)cc2)ccc1O
(A) 2

(Q) // lookup KIDNEY_TOTAL for O=C(O)c1cn(C2CC2)c2cc(N3CCNCC3)c(F)cc2c1=O
(A) 1.8

(Q) // lookup KIDNEY_TOTAL for CC(=O)Oc1ccccc1C(=O)O
(A) 1.9

(Q) // lookup KIDNEY_TOTAL for Clc1ccccc1CN1CCc2sccc2C1
(A) 1.9

----------
# Species on record: Rattus norvegicus
# protocolNotes: Open TG-GATES - Regimen: Single
# Format: toxicity, organism-based, Sprague-Dawley
# Design: regimen Single, gender Male, age 6 weeks
# assaySetup: in vivo, po, 0 mg/kg, 3 h, tissue Kidney, route gavage, dose level Control
Entries and their KIDNEY_R
Quick reminder: number only, in g, skip the unit.

NC(=O)N/N=C/c1ccc([N+](=O)[O-])o1 :: 0.8
CSc1ccc2c(c1)N(CCC1CCCCN1C)c1ccccc1S2 (configuration not stated) :: 1
COc1ccc(Cc2nccc3cc(OC)c(OC)cc23)cc1OC :: 1
CN(C)CCC=C1c2ccccc2CCc2ccccc21 :: 0.9
C[C@H](CS)C(=O)N1CCC[C@H]1C(=O)O :: 1
CC(=O)Oc1ccccc1C(=O)O :: 1
Clc1ccccc1CN1CCc2sccc2C1 :: 0.9
O=C(O)c1cn(C2CC2)c2cc(N3CCNCC3)c(F)cc2c1=O :: 0.9

(Q) // lookup KIDNEY_R for CCc1cc(C(N)=S)ccn1 [ETHIONAMIDE]
(A) 1.1

(Q) // lookup KIDNEY_R for NC(=O)N1c2ccccc2C=Cc2ccccc21 [CARBAMAZEPINE]
(A) 0.9

(Q) // lookup KIDNEY_R for O=C(O)c1cc(/N=N/c2ccc(S(=O)(=O)Nc3ccccn3)cc2)ccc1O
(A) 0.9

(Q) // lookup KIDNEY_R for Cn1c(=O)c2[nH]cnc2n(C)c1=O.O
(A) 1

----------
# Species: Rattus norvegicus
# protocolNotes: Open TG-GATES - Regimen: Single
# Format: toxicity, organism-based, Sprague-Dawley
# Design: regimen Single, gender Male, age 6 weeks
# assaySetup: in vivo, po, 100 mg/kg, 24 h, tissue Kidney, route gavage, dose level Low
Entries and their KIDNEY_L

// known answers, use as guide
CCc1cc(C(N)=S)ccn1 [ETHIONAMIDE] :: 1.1 g
O=C(O)c1cc(/N=N/c2ccc(S(=O)(=O)Nc3ccccn3)cc2)ccc1O [SULFASALAZINE] :: 1 g
O=C(O)c1cn(C2CC2)c2cc(N3CCNCC3)c(F)cc2c1=O [CIPROFLOXACIN] :: 0.9 g
C[C@H](CS)C(=O)N1CCC[C@H]1C(=O)O [CAPTOPRIL] :: 1.1 g

Next:
(Q) // lookup KIDNEY_L for Clc1ccccc1CN1CCc2sccc2C1 [TICLOPIDINE]
(A) 1 g

----------
# Species: Rattus norvegicus
# protocolNotes: Open TG-GATES - Regimen: Single
# Format: toxicity, organism-based, Sprague-Dawley
# Design: regimen Single, gender Male, age 6 weeks
# assaySetup: in vivo, po, 0 mg/kg, 9 h, tissue Blood, route gavage, dose level Control
outcomeMeasure: Hb (g/dL)
Quick reminder: number only, in g/dL, skip the unit.

// known answers, use as guide
O=C(O)c1cc(/N=N/c2ccc(S(=O)(=O)Nc3ccccn3)cc2)ccc1O :: 13.1
CC(=O)Oc1ccccc1C(=O)O :: 14
CCc1cc(C(N)=S)ccn1 [ETHIONAMIDE] :: 13.9
CN(C)CCC=C1c2ccccc2CCc2ccccc21 :: 12.8

(Q) // lookup Hb for C[C@H](CS)C(=O)N1CCC[C@H]1C(=O)O
(A) 12.9

(Q) // lookup Hb for NC(=O)N1c2ccccc2C=Cc2ccccc21 [CARBAMAZEPINE]
(A) 13

(Q) // lookup Hb for Cn1c(=O)c2[nH]cnc2n(C)c1=O.O
(A) 13.3
